methodNotes: Pharmacokinetic evaluation of compounds in mice
measurementParameters: male, C57BL, mouse, in vivo; mice, intravenous injection 2 mg/kg; read-out: Plasma clearance
attributeMeasured: clearance

Please look up its clearance: O=C1CCC(c2noc3ccc4[nH]ccc4c23)C(=O)N1 (stereo not shown)
23.2 mL/min/kg

====

System: NCI-H929
methodNotes: Antiproliferative effect in myeloma cell line NCI-H929 (CellTiter-Glo)
Type: cell-based
measurementParameters: Homo sapiens, 120 h, NCI-H929 cells, 5 days of compound co-incubation
attributeMeasured: pIC50
Reminder that pIC50 is minus the log10 of a molar concentration.

Please look up its pIC50: O=C1CCC(c2noc3ccc4cc(OCCN5CCOCC5)ccc4c23)C(=O)N1 (stereo not drawn)
7.99

Consider next the molecule O=C1CCC(c2noc3cc4occc4cc23)C(=O)N1 (stereo not drawn) in the same way.
7.72

Consider next the molecule O=C1CCC(c2noc3ccc4ccccc4c23)C(=O)N1 (stereo not drawn) in the same way.
7.67

====

methodNotes: Pharmacokinetic evaluation of compounds in mice
measurementParameters: male, C57BL, mouse, in vivo, iv, 2 mg/kg
attributeMeasured: half-life

Please look up its half-life: O=C1CCC(c2noc3ccc4cc(OCCN5CCOCC5)ccc4c23)C(=O)N1 (stereo not shown) [WX023]
3.37 h

====

methodNotes: Pharmacokinetic evaluation of compounds in rats
Assay type: in vivo, SD male rats
measurementParameters: male, Sprague Dawley, rat, plasma, intravenous injection 2 mg/kg
Give half-life for every item shown.
Numeric answer plus unit only.

Please look up its half-life: O=C1CCC(c2noc3ccc4[nH]ccc4c23)C(=O)N1 (centres unmarked) [WX009]
0.9 h

Consider next the compound O=C1CCC(c2noc3ccc4cc(OCCN5CCOCC5)ccc4c23)C(=O)N1 (centres unmarked) [WX023] in the same way.
1.24 h

====

methodNotes: Pharmacokinetic evaluation of compounds in mice
measurementParameters: male, C57BL, mouse, in vivo; mice, intravenous injection 2 mg/kg; read-out: Half life (converted)
attributeMeasured: half-life (min)
Field: numeric (min). Do not append units.

Please look up its half-life: O=C1CCC(c2noc3ccc4[nH]ccc4c23)C(=O)N1 (stereo not shown)
53.4

====

methodNotes: Pharmacokinetic evaluation of compounds in rats
Format: in vivo, SD male rats
measurementParameters: male, Sprague Dawley, rat, plasma, intravenous injection 2 mg/kg
Give clearance for every item shown.
Numeric answer plus unit only.

Please look up its clearance: O=C1CCC(c2noc3ccc4cc(OCCN5CCOCC5)ccc4c23)C(=O)N1 (centres unmarked) [WX023]
21.7 mL/min/kg

Consider next the compound O=C1CCC(c2noc3ccc4[nH]ccc4c23)C(=O)N1 (centres unmarked) [WX009] in the same way.
15.9 mL/min/kg

====

Test system: MM.1S
methodNotes: Antiproliferative effect in multiple myeloma cell line MM.1S (CellTiter-Glo)
Type: cell-based
measurementParameters: Homo sapiens, MM1.S, 120 h, MM.1S cells, 5 days of compound co-incubation
Counter-ions that a name gives are not always drawn.
attributeMeasured: pIC50
Reminder that pIC50 is minus the log10 of a molar concentration.

Please look up its pIC50: O=C1CCC(c2noc3ccc4cc(OCCN5CCCC5)ccc4c23)C(=O)N1 (centres unmarked) [WX027]
8.47

Consider next the compound O=C1CCC(c2noc3ccc4cc(OCCNC5CCOCC5)ccc4c23)C(=O)N1 (centres unmarked) [Hydrochloride of WX039] in the same way.
8.59

Consider next the compound CN(C)CCOc1ccc2c(ccc3onc(C4CCC(=O)NC4=O)c32)c1 (centres unmarked) [WX015] in the same way.
8.42

Consider next the compound O=C1CCC(c2noc3ccc4cc(OCCN5CCOCC5)ccc4c23)C(=O)N1 (centres unmarked) [WX023] in the same way.
8.19

Consider next the compound COc1ccc2c(ccc3onc(C4CCC(=O)NC4=O)c32)c1 (centres unmarked) [WX013] in the same way.
8.35

Consider next the compound O=C1CCC(c2noc3ccc4ccoc4c23)C(=O)N1 (centres unmarked) [WX006] in the same way.
8.70

Consider next the compound O=C1CCC(c2noc3ccc4ccccc4c23)C(=O)N1 (centres unmarked) [WX004] in the same way.
8.18

Consider next the compound O=C1CCC(c2noc3ccc4cc(CO)ccc4c23)C(=O)N1 (centres unmarked) [WX061] in the same way.
8.47

====

methodNotes: Pharmacokinetic evaluation of compounds in mice
measurementParameters: male, C57BL, mouse, in vivo
Excerpt: The test animals in the study were C57BL male mice, and the LC/MS/MS method was used to quantitatively determine the drug concentration in the plasma of the mice at different time points after intravenous injection or oral administration of the test compounds and the reference compound, thus evaluating the pharmacokinetic characteristics of the test drugs in the mice. C57Balb/C (C57) mice (male, 20-30 g, 7-10 weeks old, Beijing Vital River or Shanghai SLAC). […]
attributeMeasured: bioavailability (%)
Field: numeric (%). Do not append units.

Please look up its bioavailability: O=C1CCC(c2noc3ccc4cc(OCCN5CCOCC5)ccc4c23)C(=O)N1 (stereo not shown) [WX023]
100
